Listing of recorded inhibition at 10 µM by entry.
- MEASURED_TARGET: A2AAR (Mus musculus, UniProt Q60613)
- Construct: expressed in transfected cells
- Sequence (Q60613 whole entry): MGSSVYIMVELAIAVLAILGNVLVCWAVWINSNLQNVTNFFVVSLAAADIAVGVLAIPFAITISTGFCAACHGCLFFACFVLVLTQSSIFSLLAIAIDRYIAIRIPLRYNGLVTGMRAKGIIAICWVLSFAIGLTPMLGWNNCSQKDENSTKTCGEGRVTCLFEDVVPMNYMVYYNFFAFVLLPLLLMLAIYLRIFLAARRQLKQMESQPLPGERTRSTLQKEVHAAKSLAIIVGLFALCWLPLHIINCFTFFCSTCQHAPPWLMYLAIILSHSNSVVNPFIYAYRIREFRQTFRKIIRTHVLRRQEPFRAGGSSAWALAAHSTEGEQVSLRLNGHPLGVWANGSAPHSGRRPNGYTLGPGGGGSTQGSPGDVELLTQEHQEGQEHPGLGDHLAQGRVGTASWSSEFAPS
- ASSAY_NOTES: Radioligand binding, membranes of HEK293 cells stably expressing mA2AAR
- CONDITION: read-out: % inhibition A2A

COMPOUND: CNc1nc(C#Cc2ccccc2)nc2c1ncn2[C@H]1[C@H](O)[C@H](O)[C@@H]2C[C@@H]21 [Compound 8]
inhibition at 10 µM / %: 8
--
COMPOUND: CNC(=O)[C@@]12C[C@@H]1[C@@H](n1cnc3c(NCc4cccc(Cl)c4)nc(C#Cc4ccccc4)nc31)[C@H](O)[C@@H]2O [Compound 5]
inhibition at 10 µM / %: 2
--
COMPOUND: CNC(=O)[C@@]12C[C@@H]1[C@@H](n1cnc3c(NCCc4ccccc4)nc(C#Cc4ccccc4)nc31)[C@H](O)[C@@H]2O [Compound 17]
inhibition at 10 µM / %: 1
--
COMPOUND: CNC(=O)[C@@]12C[C@@H]1[C@@H](n1cnc3c(NCc4cccc(Cl)c4)nc(C#Cc4cccc(S(=O)(=O)O)c4)nc31)[C@H](O)[C@@H]2O [Compound 7]
inhibition at 10 µM / %: 1
--
COMPOUND: CCNc1nc(C#Cc2ccccc2)nc2c1ncn2[C@H]1[C@H](O)[C@H](O)[C@@H]2C[C@@H]21 [Compound 9]
inhibition at 10 µM / %: 49

====

- MEASURED_TARGET: hA3AR (Homo sapiens, UniProt P0DMS8)
- Construct: expressed in transfected cells
- Sequence (P0DMS8 whole entry): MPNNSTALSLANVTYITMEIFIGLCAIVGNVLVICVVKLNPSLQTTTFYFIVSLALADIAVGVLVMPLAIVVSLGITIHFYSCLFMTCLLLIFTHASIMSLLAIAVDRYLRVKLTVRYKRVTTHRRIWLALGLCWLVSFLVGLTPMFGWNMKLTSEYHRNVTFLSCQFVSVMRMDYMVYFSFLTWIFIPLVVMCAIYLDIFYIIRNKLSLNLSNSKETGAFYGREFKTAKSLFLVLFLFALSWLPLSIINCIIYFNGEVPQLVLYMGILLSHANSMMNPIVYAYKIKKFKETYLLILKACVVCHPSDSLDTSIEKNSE
- ASSAY_NOTES: cAMP assay, inhibition of forskolin-stimulated cAMP in hA3AR-transfected CHO cells
- Format: cell-based
- CONDITION: CHO; read-out: % efficacy, A3
Listing of recorded Emax at 10 µM by entry.

MOLECULE: CCNc1nc(C#Cc2ccccc2Cl)nc2c1ncn2C1C(O)C(O)C2CC21 (stereo not shown) [Compound 10]
MEASURED_TARGET: hA3AR (Homo sapiens, UniProt P0DMS8)
Emax at 10 µM (%): 7
--
MOLECULE: CNC(=O)[C@@]12C[C@@H]1[C@@H](n1cnc3c(NCCc4ccccc4)nc(C#Cc4ccccc4)nc31)[C@H](O)[C@@H]2O [Compound 17]
MEASURED_TARGET: hA3AR (Homo sapiens, UniProt P0DMS8)
Emax at 10 µM (%): 105
--
MOLECULE: O[C@@H]1[C@H](O)[C@@H]2C[C@@H]2[C@H]1n1cnc2c(NCCc3ccccc3)nc(C#Cc3ccccc3)nc21 [Compound 14]
MEASURED_TARGET: hA3AR (Homo sapiens, UniProt P0DMS8)
Emax at 10 µM (%): 4.1
--
MOLECULE: O[C@@H]1[C@H](O)[C@@H]2C[C@@H]2[C@H]1n1cnc2c(NCc3cccc(Cl)c3)nc(C#Cc3ccc(-c4ccccc4)cc3)nc21 [Compound 13]
MEASURED_TARGET: hA3AR (Homo sapiens, UniProt P0DMS8)
Emax at 10 µM (%): 3.5
